// reported protein stability index per item
B1: CCND1 (parent)
chain: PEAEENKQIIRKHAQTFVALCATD

Variants of: B1
Assay: protein stability index of a GFP-peptide fusion (GPS, HEK-293T) (PSI 1-6); higher = more stable;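 further: lentivirally expressed fusions sorted by FACS into six bins by GFP to DsRed ratio, PSI derived from sequencing read proportions per bin multiplied by bin number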
Details: c terminus: a fixed tail appended
The response must contain the number and no unit.

// solved cases for protein stability index follow
[[record]]
seq_string = "PEAEENKQIIRKHAQTWVALCATD"
value_measured = 2.11

[[record]]
seq_string = "PEYEENKQIIRKHAQTFVALCATD"
value_measured = 2.81

[[record]]
seq_string = "PEAEENKQIIRKHAQTFVSLCATD"
value_measured = 2.89

[[record]]
seq_string = "PEAEENKQIIRRHAQTFVALCATD"
value_measured = 2.67

[[record]]
seq_string = "PEAEENKQIIRKHAQHFVALCATD"
value_measured = 4.35


// query protein stability index value for entry `PEAEENKQIIRKHKQTFVALCATD`
2.38

// query protein stability index value for entry `PEAEENKQIIRKHAWTFVALCATD`
2.16

// query protein stability index value for entry `PEAEENKQIIRSHAQTFVALCATD`
2.29

// query protein stability index value for entry `PEADENKQIIRKHAQTFVALCATD`
2.64

// query protein stability index value for entry `PEAEENKQIIRAHAQTFVALCATD`
3.83

// query protein stability index value for entry `PEAEENKQIIRKHAQTFVALCATS`
3.9
